- SYSTEM_UNDER_TEST: glucocorticoid receptor (GR) (Rattus norvegicus)
- Construct: host or cells: T47D (A1-2)
- ASSAY: GR-mediated induction of transcription by dexamethasone in T47D (A1-2) cells (luciferase reporter and endogenous alkaline phosphatase)
- Type: cell-based, human
- CONDITIONS: T47D, 4 µM; LUC (luciferase); dexamethasone 1.0 nM; read-out: % Inhibition of GR Induction
METRIC_NAME: inhibition at 4 µM (%)
API: value field is a number in %; no unit string.

O=c1cc(-c2ccccc2)oc2ccccc12 [flavone]
4
O=C1CC(c2ccc(O)cc2)Oc2cc(O)cc(O)c21 (stereo not shown) [5,7,4′-trihydroxyflavanone]
15
O=c1cc(-c2ccc(O)cc2)oc2ccccc12 [4′-hydroxyflavone]
-43
O=c1cc(-c2ccccc2)oc2cc(O)cc(O)c12 [5,7-dihydroxyflavone]
0

[ask] Value lookup for inhibition at 4 µM; key = O=c1cc(-c2ccc(O)c(O)c2)oc2cc(O)cc(O)c12 [5,7,3′,4′-tetrahydroxyflavone]
[reply] -8

[ask] Recorded inhibition at 4 µM of O=c1cc(-c2ccc(O)cc2)oc2cccc(O)c12 [5,4′-dihydroxyflavone] , please.
[reply] 13

[ask] Given O=c1cc(-c2ccccc2)oc2cccc(O)c12 [5-hydroxyflavone] , state its recorded inhibition at 4 µM.
[reply] -9

---

- SYSTEM_UNDER_TEST: human AR (Homo sapiens, UniProt P10275)
- Construct: expressed in transfected cells; host or cells: HeLa13 (HeLa 13)
- Sequence (P10275 1-920): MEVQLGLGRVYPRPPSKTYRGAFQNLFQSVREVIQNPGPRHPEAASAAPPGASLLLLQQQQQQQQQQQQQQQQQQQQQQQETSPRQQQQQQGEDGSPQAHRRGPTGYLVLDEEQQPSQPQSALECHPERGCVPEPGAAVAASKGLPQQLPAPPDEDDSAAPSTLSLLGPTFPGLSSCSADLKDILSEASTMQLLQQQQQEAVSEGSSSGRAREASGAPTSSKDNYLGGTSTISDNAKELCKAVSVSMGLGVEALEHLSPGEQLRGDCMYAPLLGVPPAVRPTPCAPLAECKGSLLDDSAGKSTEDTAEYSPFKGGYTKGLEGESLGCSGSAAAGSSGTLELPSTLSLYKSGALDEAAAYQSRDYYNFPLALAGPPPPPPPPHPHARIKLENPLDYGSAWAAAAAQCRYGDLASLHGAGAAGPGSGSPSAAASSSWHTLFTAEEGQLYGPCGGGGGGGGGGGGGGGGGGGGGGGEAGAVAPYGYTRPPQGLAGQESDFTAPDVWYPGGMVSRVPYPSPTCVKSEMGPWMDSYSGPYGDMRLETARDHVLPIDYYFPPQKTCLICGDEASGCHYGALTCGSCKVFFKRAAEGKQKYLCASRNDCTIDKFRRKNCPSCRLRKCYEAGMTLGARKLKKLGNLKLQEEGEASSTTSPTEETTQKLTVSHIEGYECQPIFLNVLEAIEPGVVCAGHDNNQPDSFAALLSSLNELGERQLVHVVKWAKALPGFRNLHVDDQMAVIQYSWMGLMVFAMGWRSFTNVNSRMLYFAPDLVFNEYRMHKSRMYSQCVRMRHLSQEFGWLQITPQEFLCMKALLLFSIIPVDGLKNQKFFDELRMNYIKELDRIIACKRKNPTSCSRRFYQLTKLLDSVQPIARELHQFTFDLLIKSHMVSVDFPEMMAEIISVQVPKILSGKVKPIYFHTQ
- ASSAY: AR-mediated induction of PSA-luciferase reporter by R1881 in HeLa13 cells
- Assay type: cell-based
- CONDITIONS: read-out: % Inhibition of AR-Mediated Gene Induction
Please note: t applies when inhibition at 1 µM is -20% or greater, and f applies otherwise.

[ask] # check: inhibition at 1 µM of O=C1CC(c2ccc(O)cc2)Oc2ccccc21 (centres unmarked) [4′-hydroxyflavanone] is greater than or equal to -20%
[reply] t

---

- SYSTEM_UNDER_TEST: human AR (Homo sapiens)
- Construct: expressed in transfected cells; host or cells: HeLa13 (HeLa 13)
- Sequence (P10275 1-920): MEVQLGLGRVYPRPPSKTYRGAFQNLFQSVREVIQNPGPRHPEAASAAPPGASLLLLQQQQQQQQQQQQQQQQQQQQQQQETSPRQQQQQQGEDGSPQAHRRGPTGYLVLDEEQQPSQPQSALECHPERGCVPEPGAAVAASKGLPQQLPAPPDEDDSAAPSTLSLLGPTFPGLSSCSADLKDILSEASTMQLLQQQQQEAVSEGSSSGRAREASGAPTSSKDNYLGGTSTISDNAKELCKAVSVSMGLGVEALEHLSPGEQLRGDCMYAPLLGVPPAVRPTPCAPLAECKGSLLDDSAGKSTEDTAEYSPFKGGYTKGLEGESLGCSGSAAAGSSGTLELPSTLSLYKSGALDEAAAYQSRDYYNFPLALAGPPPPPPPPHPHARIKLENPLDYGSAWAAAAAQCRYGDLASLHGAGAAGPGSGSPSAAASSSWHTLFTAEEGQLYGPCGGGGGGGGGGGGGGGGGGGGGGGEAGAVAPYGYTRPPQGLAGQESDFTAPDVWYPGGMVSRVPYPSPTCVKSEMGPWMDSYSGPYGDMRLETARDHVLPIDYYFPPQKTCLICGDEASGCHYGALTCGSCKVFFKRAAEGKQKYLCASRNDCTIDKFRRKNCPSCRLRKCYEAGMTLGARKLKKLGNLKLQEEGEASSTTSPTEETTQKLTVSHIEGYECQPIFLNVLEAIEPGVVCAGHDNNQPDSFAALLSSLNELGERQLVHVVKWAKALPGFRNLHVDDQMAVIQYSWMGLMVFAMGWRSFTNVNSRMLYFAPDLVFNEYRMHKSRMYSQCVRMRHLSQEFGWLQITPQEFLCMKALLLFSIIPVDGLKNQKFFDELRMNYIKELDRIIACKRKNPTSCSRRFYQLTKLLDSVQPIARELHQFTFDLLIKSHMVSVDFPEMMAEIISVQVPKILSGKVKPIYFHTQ
- ASSAY: AR-mediated induction of PSA-luciferase reporter by R1881 in HeLa13 cells
- Assay type: cell-based
- CONDITIONS: 4 µM; R1881 1.0 nM; read-out: % Inhibition of AR-Mediated Gene Induction
METRIC_NAME: inhibition at 4 µM (%)
Report the value in % with no unit label.

Known results for molecules:
COc1ccc(-c2cc(=O)c3cc(O)ccc3o2)cc1 [6-hydroxy,4′-methoxyflavone]
39
O=c1cc(-c2ccccc2)oc2ccccc12
55
O=c1cc(-c2ccc(O)c(O)c2)oc2cc(O)cc(O)c12 [5,7,3′,4′-tetrahydroxyflavone]
67
Oc1ccc(C2COc3cc(O)ccc3C2)cc1 (stereo not shown) [7,4′-dihydroxyisoflavan]
22
O=c1cc(-c2ccc(O)cc2)oc2ccc(O)cc12 [6,4′-dihydroxyflavone]
54
O=c1cc(-c2ccc(O)c(O)c2)oc2cc(O)ccc12 [7,3′,4′-trihydroxyflavone]
11

[ask] Look up inhibition at 4 µM: O=c1cc(-c2ccc(O)cc2)oc2cccc(O)c12 [5,4′-dihydroxyflavone]
[reply] 97

---

- SYSTEM_UNDER_TEST: human AR (Homo sapiens)
- Construct: expressed in transfected cells; host or cells: HeLa13 (HeLa 13)
- ASSAY: AR-mediated induction of PSA-luciferase reporter by R1881 in HeLa13 cells
- Format: cell-based
- CONDITIONS: 4 µM; R1881 1.0 nM; read-out: % Inhibition of AR-Mediated Gene Induction
// f strictly below 30% in inhibition at 4 µM; t otherwise

Solved cases (4 shown):
O=c1c(O)c(-c2ccc(O)cc2)oc2ccc(O)cc12 [3,6,4′-trihydroxyflavone]
t
O=c1cc(-c2ccccc2)oc2cc(O)cc(O)c12 [5,7-dihydroxyflavone]
t
O=c1c(-c2ccc(O)cc2)coc2cc(O)cc(O)c12 [5,7,4′-trihydroxyisoflavone]
f
O=c1c(O)c(-c2ccc(O)cc2)oc2ccccc12 [3,4′-dihydroxyflavone]
f

# input for lookup
[ask] Given the entry O=c1c(-c2ccc(O)cc2)coc2cc(O)ccc12 [7,4′-dihydroxyisoflavone] , answer whether its inhibition at 4 µM meets or surpasses 30%.
[reply] f

---

- SYSTEM_UNDER_TEST: UniProt:P06401
- Sequence (P06401 679-933 limits assumed): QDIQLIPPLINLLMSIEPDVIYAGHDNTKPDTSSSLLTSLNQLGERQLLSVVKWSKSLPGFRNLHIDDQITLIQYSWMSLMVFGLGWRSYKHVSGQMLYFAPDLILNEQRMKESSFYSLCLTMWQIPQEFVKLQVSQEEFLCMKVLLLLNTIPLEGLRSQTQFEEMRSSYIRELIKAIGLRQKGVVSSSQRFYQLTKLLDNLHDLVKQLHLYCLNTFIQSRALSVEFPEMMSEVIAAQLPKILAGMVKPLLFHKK
- ASSAY: PR-mediated induction of transcription by R5020 in T47D K5pLuc cells (luciferase reporter and endogenous alkaline phosphatase)
- Type: cell-based
- CONDITIONS: T47D, 8 µM; AP (alkaline phosphatase); R5020 1.0 nM
Recorded inhibition at 8 µM for the following compounds
Give a bare numeral; the unit % is implied.

// below: answered compounds
O=c1cc(-c2ccc(O)cc2)oc2cc(O)ccc12 [7,4′-dihydroxyflavone]
55
O=c1cc(-c2ccc(O)c(O)c2)oc2ccccc12 [3′,4′-dihydroxyflavone]
27
O=c1cc(-c2ccccc2)oc2ccccc12 [flavone]
40
O=c1cc(-c2ccc(O)cc2)oc2ccc(O)cc12 [6,4′-dihydroxyflavone]
37
O=C1CC(c2ccc(O)c(O)c2)Oc2cc(O)cc(O)c21 (stereo not shown) [5,7,3′,4′-tetrahydroxyflavanone]
40
O=c1c(O)c(-c2ccc(O)c(O)c2)oc2cc(O)cc(O)c12 [3,5,7,3′,4′-pentahydroxyflavone]
79

[ask] What value of inhibition at 8 µM on UniProt:P06401 does Oc1ccc(C2COc3cc(O)ccc3C2)cc1 (stereo not shown) [7,4′-dihydroxyisoflavan] have?
[reply] 42

[ask] Report inhibition at 8 µM for O=c1cc(-c2ccccc2)oc2cccc(O)c12 [5-hydroxyflavone] tested on UniProt:P06401.
[reply] 61

[ask] Any idea what inhibition at 8 µM came out for O=c1cc(-c2ccc(O)c(O)c2)oc2cc(O)ccc12 [7,3′,4′-trihydroxyflavone] on UniProt:P06401?
[reply] 39

[ask] Kindly state the measured inhibition at 8 µM obtained for O=c1cc(-c2ccc(O)cc2)oc2cccc(O)c12 [5,4′-dihydroxyflavone] with UniProt:P06401.
[reply] 74
